Test name: antimalarial activity against Dd2 strain (AID 2302);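 further: 0% = DMSO untreated growth and 100% = chloroquine plus artemisinin killed control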
Condition description: P. falciparum Dd2 in RBCs, LDH growth readout, 72 h; at 2 µM
Activity calls are given as the source filed them.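 How the source made its calls: active means growth inhibition above 50% at the single 2 µM test dose, taken to imply half-maximal potency below 2 µM; inactive means the rest.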
Would you mind answering with one of these outcomes? YES (active), NO (inactive)

In this assay, the call recorded for "COCCN1CCN(Cc2ccc(-c3ccc(-c4nc5c(C)cccc5[nH]4)s3)cc2)CC1" was what? YES

In this assay, the call recorded for CC(CN)OCn1cnc2c(N)ncnc21 (centres undefined) was what? NO

In this assay, the call recorded for "FC(F)(F)c1ccc2nccc(NN=Cc3ccccc3)c2c1" was what? NO

In this assay, the call recorded for "O=C(NCCCCN1CCC(c2ccc3c(c2OCCCO)CCCC3)CC1)c1ccc(-c2ccc(C(F)(F)F)cc2)cc1" was what? YES

In this assay, the call recorded for "CC(C)CCNc1nc(NCCCc2ccccc2)c2cc(O)ccc2n1" was what? YES

In this assay, the call recorded for "CC(C)CC(=O)NC1CCN(Cc2c(-c3cccs3)nc3ccccc3c2C(=O)N[C@@H](C)C2CCCCC2)CC1" was what? YES

In this assay, the call recorded for "NC1=NC(=O)C(=Cc2cn(-c3ccccc3)nc2-c2cccc(S(=O)(=O)N3CCCC3)c2)S1" was what? YES

In this assay, the call recorded for "COc1cc(NCC2(CNCc3cn(Cc4ccccc4)c4ccccc34)CCCCC2)nc2ccccc12" was what? NO

In this assay, the call recorded for "O=C(Cn1c(CCc2cccc(F)c2F)nc(=O)c2ccccc21)N(Cc1ccc(-c2ccc(C(F)(F)F)cc2)cc1)C1CCN(C2CCSCC2)CC1" was what? YES

In this assay, the call recorded for "Cc1cc(-c2ccc(CNC3Cc4ccccc4C3)cc2)ccc1S(=O)(=O)NCCN1CCCC1" was what? YES

In this assay, the call recorded for CC1CCCCN1S(=O)(=O)c1ccc(NC(=O)c2cc(-c3ccccc3O)n[nH]2)cc1 (centres undefined) was what? YES

In this assay, the call recorded for "CN(C)CCCNC(=O)c1ccccc1Sc1ccccc1C#N" was what? NO

In this assay, the call recorded for "O=C(Oc1ccc(Cl)cc1C(=O)Nc1ccc([N+](=O)[O-])cc1Cl)c1ccccc1" was what? NO

In this assay, the call recorded for "N#Cc1cccc(CN2CCCN(c3ccc(NC(=O)c4cccs4)cc3)CC2)c1" was what? YES

In this assay, the call recorded for "CC(C)CNCc1ccc(-c2cccc(CN(C(=O)NCCc3ccccc3)C3CCN(Cc4ccccc4)CC3)c2)cc1" was what? YES

In this assay, the call recorded for "CCCCc1ccccc1NS(=O)(=O)c1ccc(OC)c(N2CCNCC2)c1" was what? NO

In this assay, the call recorded for CN1CCC(Oc2ccc(CN3CC[C@H](NC(=O)c4ccc(F)c(F)c4)C3)c3ccccc23)C1 (some centres undefined) was what? NO

In this assay, the call recorded for "CC(C)(C)c1ccc(-c2csc(NC(=O)CC(c3ccccc3)c3ccccc3)n2)cc1" was what? YES

In this assay, the call recorded for "CCc1ccc(C2CCN(CCCCNC(=O)c3ccc(NC(=O)c4ccc(Cl)cc4)cc3)CC2)cc1" was what? YES

###

Test name: HepG2 cytotoxicity, primary screen, cytotoxicity control for P. falciparum antimalarial project, cell-based, ATP luminescence (AID 2303);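 further: 0% = DMSO wells and 100% = digitonin-killed cells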
Condition description: HepG2 viability, 24-48 h, at 10 µM, stronger effect = higher value
Outcome measure: inhibition (%)
Respond numerically; units are % and should not be typed.

Bench note: what inhibition did "c1cc(CNC2CCCC2)cc(-c2ccc(CNc3ccc4ncccc4c3)cc2)c1" show? 32

Bench note: what inhibition did "c1ccc(-c2ccc(-c3nc4ccccc4[nH]3)cc2)cc1" show? 10

Bench note: what inhibition did "CC1(C)CNCc2cc(NC(=O)/C=C/c3ccc(Cl)cc3)ccc21" show? 23

Bench note: what inhibition did "COc1cccc(CCc2cccc(CNC(C)=O)c2)c1" show? 2

Bench note: what inhibition did "CS(=O)(=O)NCCCNCc1cccc(-c2ccc(-c3nc4ccc(C(F)(F)F)cc4[nH]3)cc2)c1" show? 17

Bench note: what inhibition did "COc1ccc(NS(=O)(=O)c2ccc(C(=O)Nc3ccc(OC(F)(F)F)cc3)cc2)cc1N1CCN(CC2CC2)CC1" show? 18

Bench note: what inhibition did "Oc1ccc(-c2nc3c(N4CCN(Cc5ccccc5)CC4)cccc3n2C2CCNCC2)cc1" show? -1

Bench note: what inhibition did "CCCCCCCN1CC[C@@H](CCCc2ccnc3ccc(OCCN4CCOCC4)cc23)[C@@H](CC)C1" show? 14

Bench note: what inhibition did "CCOc1ccc2c(NN=Cc3ccccn3)cc(C)nc2c1" show? 19

Bench note: what inhibition did "O=C(/C=C/c1ccc(C(F)(F)F)cc1)NCCCCCN1CCCN(C(=O)Nc2ccc(Cl)cc2)CC1" show? 28

Bench note: what inhibition did "CCNc1cc(C)nc(Nc2ccc(NC(=O)c3c(F)cccc3Cl)cc2)n1" show? 49

Bench note: what inhibition did "O=S(=O)(Nc1cc2c(cc1OCCCN1CCCCC1)CCNCC2)c1ccc(-c2ccc(Cl)cc2)cc1" show? 77

Bench note: what inhibition did "O=C(Nc1ccc(-c2cccc(CN3CCC(O)CC3)c2)cc1)c1cccc(Cl)c1" show? 50

Bench note: what inhibition did "Nc1nccc2ccc(-c3ccc(NC(=O)Nc4cc(C(F)(F)F)ccc4F)cc3)cc12" show? 99

Bench note: what inhibition did O=C(CCc1cccc(O)c1)NCC(NCCCNc1cc(=O)c2ccccc2[nH]1)c1cc(Br)cc(Br)c1 (centres undefined) show? -6

Bench note: what inhibition did "CCN(CC)CCN(Cc1ccc(-c2ccc(C(F)(F)F)cc2)cc1)C(=O)Cn1cc(Cc2cnn(C)c2)c(=O)n2nc(-c3ccccc3)cc12" show? 18

Bench note: what inhibition did "O=C(NC(=O)c1ccccc1O)c1ccccc1O" show? -5

Bench note: what inhibition did "N#Cc1cccc(NC(=O)Nc2cccc(-c3ccc(-c4nc5ccc(C(F)(F)F)cc5[nH]4)cc3)c2)c1" show? 54

Bench note: what inhibition did "c1ccc(CNCc2cccc(-c3csc(-c4nc5ccccc5[nH]4)c3)c2)cc1" show? 24

Bench note: what inhibition did "Cc1cc(NC(=O)c2cccs2)ccc1OC1CCN(Cc2ccc(C#N)cc2)CC1" show? 34

Bench note: what inhibition did "Cc1nc(N)nc(N)c1OCc1cccc2ccccc12" show? 63

Bench note: what inhibition did "O=[N+]([O-])c1cccc(CNCC2CCN(Cc3ccc4ccccc4c3)CC2)c1" show? 18

Bench note: what inhibition did "O=C(NCCSCc1c(F)cccc1Cl)c1cnc2c(c1)nc(-c1cnc(-c3ccccc3)[nH]1)n2CCc1cnc[nH]1" show? 10

Bench note: what inhibition did "c1cc(CNCc2ccc3c(c2)OCO3)cc(-c2cccc(CNc3ccc4ncccc4c3)c2)c1" show? 18

Bench note: what inhibition did CCOc1cc(Br)c(C(C)NC(=O)c2ccccc2)cc1OCC (centres undefined) show? -2

Bench note: what inhibition did "NC(N)=NN=CC(=O)Nc1ccc(Cl)c(Cl)c1" show? -14

Bench note: what inhibition did "O=c1cc(NCCCNCc2cccc(SC(F)(F)F)c2)[nH]c2ccccc12" show? -9

Bench note: what inhibition did "Cc1nc(N=C(N)N)nc2cc3c(cc12)CCC3" show? 17

Bench note: what inhibition did O=C(NCc1ccccc1)C1Cc2c([nH]c3ccc(Br)cc23)C2(CCN(Cc3ccccc3)CC2)N1 (centres undefined) show? 15

Bench note: what inhibition did "COc1ccc(CCCN2C(=O)C(c3ccccc3)(c3ccccc3)N=C2N)cc1" show? 21

Bench note: what inhibition did "Cc1cccc2[nH]c(-c3cccc(-c4ccc(NC(=O)c5ccc(=O)[nH]n5)cc4)c3)nc12" show? 18

Bench note: what inhibition did "Cc1cc(F)ccc1Nc1nc(N(C)c2ccccc2)c2cccc(OCCO)c2n1" show? 34

Bench note: what inhibition did "Oc1ccc(CCNc2nc(NCc3ccccc3-c3cccc(Cl)c3)nc(N3CCNCC3)n2)cc1" show? 15

Bench note: what inhibition did "CC(C)(C)OC(=O)c1c(NC(=O)/C=C/c2ccc(O)c(O)c2)sc2c1CCCC2" show? 4

Bench note: what inhibition did "Cn1nc2ccc3ccccc3c2nc1=N" show? 100

Bench note: what inhibition did "COc1ccc2nccc([C@@H](O)CN3CCC(NCc4ccc5cccc(O)c5n4)CC3)c2c1" show? 10

Bench note: what inhibition did "CC(C)Cn1c(Sc2ccc(C#N)c([N+](=O)[O-])c2)nnc1-c1cccc(Cl)c1" show? 24

Bench note: what inhibition did "CCN1CCC(N(Cc2ccc(-c3ccc(C(F)(F)F)cc3)cc2)C(=O)CCCCn2c(CCc3cccc(F)c3F)nc(=O)c3ccccc32)CC1" show? 54

Bench note: what inhibition did "CCOC(=O)c1ccc(N2CCN(CCCNC(=O)/C(=C/C=C/c3cc4cc(Cl)c(Cl)cc4[nH]3)OC)CC2)cc1" show? 39

The reported measurements were obtained from PubChem BioAssay.
